B1: KLHDC10 (parent)
chain: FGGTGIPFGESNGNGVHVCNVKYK

variants of: B1; assay: protein stability index of a GFP-peptide fusion (GPS, HEK-293T) (PSI 1-6); higher = more stable; conditions: c terminus: a fixed tail appended;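 note: lentivirally expressed fusions sorted by FACS into six bins by GFP to DsRed ratio, PSI derived from sequencing read proportions per bin multiplied by bin number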

>  <Mutant Code>
G5R

>  <protein stability index>
2

$$$$
>  <Mutant Code>
H17N

>  <protein stability index>
2.03

$$$$
>  <Mutant Code>
G2Q

>  <protein stability index>
2.02

$$$$
>  <Mutant Code>
C19L

>  <protein stability index>
1.97

$$$$
>  <Mutant Code>
V21K

>  <protein stability index>
1.98

$$$$

The reported measurements were obtained from the supplement of paper PMC10567573.
